Read-out: ABC Transporter (ABCC2), ABCC2 (gene 1244)
Assay: LTEA_HepaRG_ABCC2: Life Technologies and Expression Analysis (LTEA) Assay for ABC Transporter (ABCC2) using HepaRG (AID 2283464)
Settings: mRNA level, 48 h; actives raise or lower the signal
Description: LTEA_HepaRG is a cell based, multiplexed-readout assay that uses HepaRG, a human liver cell line, with measurements taken at 48 hours after chemical dosing on a 96-well plate.LTEA_HepaRG_ABCC2 is one of 102 assay component(s) measured in the LTEA HepaRG cell culture assay. It is a marker of Steatosis/NR mediated transport.Data from the assay component LTEA_HepaRG_ABCC2 was analyzed into 1 endpoint. […]
Active and inactive are the calls of the source. How the source made its calls: active means hit-call score of the fitted dose curve at least 0.9, where 1 is the maximum; inactive means score below 0.9.
Measure: AC50

| Molecule | Measure | Measured |
| --- | --- | --- |
| Cc1cccc(C)c1N | AC50 | inactive |
| C=CC(=O)NCNC(=O)C=C | AC50 | 16 µM (active) |
| C[C@]12CCC(=O)C=C1CC[C@@H]1[C@@H]2CC[C@]2(C)C(=O)CC[C@@H]12 | AC50 | 50 µM (active) |
| CO/C=C(/C(=O)OC)c1ccccc1COc1cccc(C(F)(F)F)n1 | AC50 | 28 µM (active) |
| CCCCCCCCCc1ccc(O)cc1 | AC50 | inactive |
| CCOC(=O)C(O)(c1ccc(Cl)cc1)c1ccc(Cl)cc1 | AC50 | inactive |
| NS(=O)(=O)C(F)(F)C(F)(F)C(F)(F)C(F)(F)C(F)(F)C(F)(F)C(F)(F)C(F)(F)F | AC50 | 10.1 µM (active) |
| ClC(Cl)=C(c1ccc(Cl)cc1)c1ccc(Cl)cc1 | AC50 | 10.8 µM (active) |
| CCOCCOC(C)=O | AC50 | inactive |
| CCNc1nc(NC(C)C)nc(SC)n1 | AC50 | inactive |
| CCCCCCCCCC[N+](C)(C)CCCCCCCCCC | AC50 | 94.2 µM (active) |
| CCSC(=O)N(CC)C1CCCCC1 | AC50 | inactive |
| Cc1ccc(O)c(C)c1 | AC50 | inactive |
| Oc1c(Cl)c(Cl)c(Cl)c(Cl)c1Cl | AC50 | 2.03 µM (active) |
| COS(=O)(=O)OC | AC50 | inactive |
| C1CC2OC2CC1C1CO1 (stereo not given) | AC50 | inactive |
| Clc1ccc(C(c2ccccc2Cl)C(Cl)(Cl)Cl)cc1 (stereo not given) | AC50 | 13.2 µM (active) |
| CC(C)(c1ccccc1)c1ccc(O)cc1 | AC50 | inactive |
| O=C(O)C(F)(F)C(F)(F)C(F)(F)C(F)(F)C(F)(F)C(F)(F)C(F)(F)C(F)(F)C(F)(F)F | AC50 | 94.8 µM (active) |
| c1cc2ccc3cccc4ccc(c1)c2c34 | AC50 | inactive |

Data provenance is PubChem BioAssay (EPA / NIEHS).
